Test system: KYSE-220 (Esophageal Squamous Cell Carcinoma)
measurement_notes: Bliss excess, mean over the matrix (fraction); higher = more synergy
Overview of reported Bliss excess across a group of compounds:

compound	system	Bliss excess
Cc1cc2ncnn2cc1Nc1ncc2c(n1)n(C1CCOCC1)c(=O)n2C [AZD7648] + C[C@@H]1COCCN1C2=NC(=NC(=C2)C3(CC3)[S@](=N)(=O)C)C4=C5C=CNC5=NC=C4 [AZD6738] (first compound max 10 µM, 7x7, partner max 10 µM)	KYSE-220 (Esophageal Squamous Cell Carcinoma)	-0.0122
CN(CCO)CC[C@H](CSc1ccccc1)Nc1ccc(S(=O)(=O)NC(=O)c2ccc(N3CCC([C@@H](O)c4ccccc4-c4ccc(Cl)cc4)CC3)cc2)cc1S(=O)(=O)C(F)(F)F [AZD4320] + C1CN(CCC1(C(=O)N[C@@H](CCO)C2=CC=C(C=C2)Cl)N)C3=NC=NC4=C3C=CN4 [Capivasertib] (first compound max 1 µM, 7x7, partner max 3 µM)	KYSE-220 (Esophageal Squamous Cell Carcinoma)	-0.0056

Under KYSE-220 (Esophageal Squamous Cell Carcinoma): Bliss excess value of Cc1cc2ncnn2cc1Nc1ncc2c(n1)n(C1CCOCC1)c(=O)n2C [AZD7648] + O=C(c1cc(Cc2n[nH]c(=O)c3ccccc23)ccc1F)N1CCN(C(=O)C2CC2)CC1 [Olaparib] (first compound max 10 µM, 7x7, partner max 10 µM) ?
-0.0372

Quick one: C[C@@H](Oc1cc(-c2cnn(C3CCNCC3)c2)cnc1N)c1c(Cl)ccc(F)c1Cl [Crizotinib] + Cn1cnc2c(F)c(Nc3ccc(Br)cc3Cl)c(C(=O)NOCCO)cc21 [Selumetinib] (first compound max 10 µM, 7x7, partner max 10 µM)
0.0436

Quick one: Cc1nc(Nc2ncc(C(=O)Nc3c(C)cccc3Cl)s2)cc(N2CCN(CCO)CC2)n1 [Dasatinib] + CC(=O)Nc1cccc(-n2c(=O)n(C3CC3)c(=O)c3c(Nc4ccc(I)cc4F)n(C)c(=O)c(C)c32)c1 [Trametinib] (first compound max 2 µM, 7x7, partner max 1 µM)
-0.0522

Quick one: COc1cccc(OCCCN)c1-c1cc(Nc2cnc(C#N)cn2)n[nH]1 [Prexasertib] + CCc1c2c(nc3ccc(O)cc13)-c1cc3c(c(=O)n1C2)COC(=O)[C@]3(O)CC [SN-38] (first compound max 1 µM, 7x7, partner max 0.3 µM)
-0.0153

Quick one: COc1cccc(OCCCN)c1-c1cc(Nc2cnc(C#N)cn2)n[nH]1 [Prexasertib] + CN(C)CCCOc1ccc(-c2ccc3ncc4c(c3c2)n(C2CCOCC2)c(=O)n4C)cn1 [AZD0156] (first compound max 1 µM, 7x7, partner max 1 µM)
-0.026

----------
Tested on: G-402 (Other Solid Carcinomas)
measurement_notes: combination Emax (second highest fraction inhibited in the dose matrix, 72 h); higher = more inhibition; extreme values may be limits of the assay
metric: combination Emax

Return reported combination Emax; argument: CS(=O)(=O)CCNCc1ccc(-c2ccc3ncnc(Nc4ccc(OCc5cccc(F)c5)c(Cl)c4)c3c2)o1 [Lapatinib] + C[C@@H](Oc1cc(-c2cnn(C3CCNCC3)c2)cnc1N)c1c(Cl)ccc(F)c1Cl [Crizotinib] (first compound max 10 µM, 7x7, partner max 10 µM)
0.879

Quick one: COc1nnc2ccc(N3CCC(c4ccc(OCCN5CCN(C)C(=O)[C@H]5C)cc4)CC3)nn12 [AZD5153] + C=CCn1c(=O)c2cnc(Nc3ccc(N4CCN(C)CC4)cc3)nc2n1-c1cccc(C(C)(C)O)n1 [AZD1775] (first compound max 1 µM, partner max 1 µM)
0.85

Quick one: CC(=O)c1c(C)c2cnc(Nc3ccc(N4CCNCC4)cn3)nc2n(C2CCCC2)c1=O [Palbociclib] + CN(CC[C@H](CSC1=CC=CC=C1)NC2=C(C=C(C=C2)S(=O)(=O)NC(=O)C3=CC=C(C=C3)N4CCC(CC4)[C@H](C5=CC=CC=C5C6=CC=C(C=C6)Cl)O)S(=O)(=O)C(F)(F)F)CCO [AZD4320] (first compound max 10 µM, 7x7, partner max 1 µM)
0.781

Quick one: CC(=O)c1c(C)c2cnc(Nc3ccc(N4CCNCC4)cn3)nc2n(C2CCCC2)c1=O [Palbociclib] + Cn1cnc2c(F)c(Nc3ccc(Br)cc3Cl)c(C(=O)NOCCO)cc21 [Selumetinib] (first compound max 10 µM, 7x7, partner max 10 µM)
0.462

Quick one: COc1cccc(OCCCN)c1-c1cc(Nc2cnc(C#N)cn2)n[nH]1 [Prexasertib] + CN(C)CCCOc1ccc(-c2ccc3ncc4c(c3c2)n(C2CCOCC2)c(=O)n4C)cn1 [AZD0156] (first compound max 1 µM, 7x7, partner max 1 µM)
0.562

Quick one: C=CCn1c(=O)c2cnc(Nc3ccc(N4CCN(C)CC4)cc3)nc2n1-c1cccc(C(C)(C)O)n1 [AZD1775] + O=C(c1cc(Cc2n[nH]c(=O)c3ccccc23)ccc1F)N1CCN(C(=O)C2CC2)CC1 [Olaparib] (first compound max 1 µM, partner max 10 µM)
0.41

Quick one: COc1cccc(OCCCN)c1-c1cc(Nc2cnc(C#N)cn2)n[nH]1 [Prexasertib] + Cc1cc2ncnn2cc1Nc1ncc2c(n1)n(C1CCOCC1)c(=O)n2C [AZD7648] (first compound max 1 µM, 7x7, partner max 10 µM)
0.58

----------
Test system: 769-P (Kidney Carcinoma)
measurement_notes: Bliss excess, mean over the matrix (fraction); higher = more synergy
metric: Bliss excess

As a guide, the following entries are already answered.
compound	system	Bliss excess
NC1(C(=O)N[C@@H](CCO)c2ccc(Cl)cc2)CCN(c2ncnc3[nH]ccc23)CC1 [Capivasertib] + CCN(CCO)CCCOc1ccc2c(Nc3cc(CC(=O)Nc4cccc(F)c4)[nH]n3)ncnc2c1 [AZD2811] (first compound max 10 µM, 7x7, partner max 1 µM)	769-P (Kidney Carcinoma)	-0.0139
CN(CCO)CC[C@H](CSc1ccccc1)Nc1ccc(S(=O)(=O)NC(=O)c2ccc(N3CCC([C@@H](O)c4ccccc4-c4ccc(Cl)cc4)CC3)cc2)cc1S(=O)(=O)C(F)(F)F [AZD4320] + CS(=O)(=O)CCNCc1ccc(-c2ccc3ncnc(Nc4ccc(OCc5cccc(F)c5)c(Cl)c4)c3c2)o1 [Lapatinib] (first compound max 1 µM, 7x7, partner max 10 µM)	769-P (Kidney Carcinoma)	-0.0042

# evaluate next
Return reported Bliss excess; argument: COc1cccc(OCCCN)c1-c1cc(Nc2cnc(C#N)cn2)n[nH]1 [Prexasertib] + O=C(c1cc(Cc2n[nH]c(=O)c3ccccc23)ccc1F)N1CCN(C(=O)C2CC2)CC1 [Olaparib] (first compound max 1 µM, 7x7, partner max 10 µM)
-0.118

----------
Tested on: CGTH-W-1 (Thyroid Gland Carcinoma)
measurement_notes: combination Emax (second highest fraction inhibited in the dose matrix, 72 h); higher = more inhibition; extreme values may be limits of the assay
metric: combination Emax

As a guide, the following entries are already answered.
compound	meas_value
CC1(C)CCC(CN2CCN(c3ccc(C(=O)NS(=O)(=O)c4ccc(NCC5CCOCC5)c([N+](=O)[O-])c4)c(Oc4cnc5[nH]ccc5c4)c3)CC2)=C(c2ccc(Cl)cc2)C1 [Venetoclax] + CS(=O)(=O)CCNCc1ccc(-c2ccc3ncnc(Nc4ccc(OCc5cccc(F)c5)c(Cl)c4)c3c2)o1 [Lapatinib] (first compound max 1 µM, 7x7, partner max 10 µM)	0.115
Cn1cnc2c(F)c(Nc3ccc(Br)cc3Cl)c(C(=O)NOCCO)cc21 [Selumetinib] + CC(C)n1c(=O)n(C)c2cnc3cc(F)c(-c4ccc(OCCCN5CCCCC5)nc4)cc3c21 [AZD1390] (first compound max 10 µM, 7x7, partner max 0.3 µM)	0.044
COc1cccc(OCCCN)c1-c1cc(Nc2cnc(C#N)cn2)n[nH]1 [Prexasertib] + C=CCn1c(=O)c2cnc(Nc3ccc(N4CCN(C)CC4)cc3)nc2n1-c1cccc(C(C)(C)O)n1 [AZD1775] (first compound max 1 µM, partner max 1 µM)	0.765

Return reported combination Emax; argument: Cc1cc2ncnn2cc1Nc1ncc2c(n1)n(C1CCOCC1)c(=O)n2C [AZD7648] + CN(C)CCCOc1ccc(-c2ccc3ncc4c(c3c2)n(C2CCOCC2)c(=O)n4C)cn1 [AZD0156] (first compound max 10 µM, 7x7, partner max 1 µM)
0.228

----------
Overview of reported combination Emax across a group of molecules:
Test system: JIMT-1 (Breast Carcinoma)
measurement_notes: combination Emax (second highest fraction inhibited in the dose matrix, 72 h); higher = more inhibition; extreme values may be limits of the assay
API note: the answer field is a bare number with no unit suffix.

As a guide, the following entries are already answered.
molecule	meas_value
Cc1c2c(nn1C)CSCc1cc(n(C)n1)CSc1cc(c3ccccc3c1)OCCCc1c(C(=O)O)n(C)c3c-2c(Cl)ccc13 [AZD5991] + CN(C)CCCOc1ccc(-c2ccc3ncc4c(c3c2)n(C2CCOCC2)c(=O)n4C)cn1 [AZD0156] (first compound max 1 µM, 7x7, partner max 1 µM)	0.225
COc1cccc2c1C(=O)c1c(O)c3c(c(O)c1C2=O)C[C@@](O)(C(=O)CO)C[C@@H]3O[C@H]1C[C@H](N)[C@H](O)[C@H](C)O1 [Doxorubicin] + Cc1cc2ncnn2cc1Nc1ncc2c(n1)n(C1CCOCC1)c(=O)n2C [AZD7648] (first compound max 1 µM, 7x7, partner max 10 µM)	0.697
CCc1c2c(nc3ccc(O)cc13)-c1cc3c(c(=O)n1C2)COC(=O)[C@]3(O)CC [SN-38] + O=C(c1cc(Cc2n[nH]c(=O)c3ccccc23)ccc1F)N1CCN(C(=O)C2CC2)CC1 [Olaparib] (first compound max 0.3 µM, 7x7, partner max 10 µM)	0.267

# evaluate next
Return reported combination Emax; argument: CC1(C)CCC(CN2CCN(c3ccc(C(=O)NS(=O)(=O)c4ccc(NCC5CCOCC5)c([N+](=O)[O-])c4)c(Oc4cnc5[nH]ccc5c4)c3)CC2)=C(c2ccc(Cl)cc2)C1 [Venetoclax] + C[C@@H](Nc1cc(F)cc(F)c1)c1cc(C(=O)N(C)C)cc2c(=O)cc(N3CCOCC3)oc12 [AZD8186] (first compound max 1 µM, 7x7, partner max 3 µM)
0.087
